The entries below are paired with their reported inhibition at 3 µM.
Tested on: HT-22
Experiment: Neuroprotective activity against mouse HT22 cells assessed as inhibition of glutamate-induced cell injury pretreated at 3 uM for 30 mins measured after 24 hrs by MTT assay
Type: functional

{"compound": "Cc1ccc(S(=O)(=O)n2c3ccccc3c3ccc(C#N)cc32)cc1", "assay.system": "HT-22", "value.kind": "inhibition at 3 µM", "endpoint.result": "3%"}
{"compound": "Cc1ccc(S(=O)(=O)n2c3ccccc3c3ccccc32)cc1", "assay.system": "HT-22", "value.kind": "inhibition at 3 µM", "endpoint.result": "0%"}
{"compound": "c1ccc(-n2c3ccccc3c3ccccc32)cc1", "assay.system": "HT-22", "value.kind": "inhibition at 3 µM", "endpoint.result": "0%"}
{"compound": "CCc1ccc(S(=O)(=O)n2c3ccccc3c3ccccc32)cc1", "assay.system": "HT-22", "value.kind": "inhibition at 3 µM", "endpoint.result": "0%"}
{"compound": "COc1ccc2c(c1)c1ccccc1n2-c1ccc(C(C)(C)C)cc1", "assay.system": "HT-22", "value.kind": "inhibition at 3 µM", "endpoint.result": "0%"}
{"compound": "FC(F)(F)c1ccc(-n2c3ccccc3c3ccccc32)cc1", "assay.system": "HT-22", "value.kind": "inhibition at 3 µM", "endpoint.result": "0%"}
{"compound": "CCCCn1c2ccccc2c2ccccc21", "assay.system": "HT-22", "value.kind": "inhibition at 3 µM", "endpoint.result": "0%"}
{"compound": "Fc1cccc(-n2c3ccccc3c3ccccc32)c1", "assay.system": "HT-22", "value.kind": "inhibition at 3 µM", "endpoint.result": "0%"}

// query Report inhibition at 3 µM for Brc1ccc(-n2c3ccccc3c3ccccc32)cc1 please.
// result 0%

// query What do you have for CC(C)(C)c1ccc(-n2c3ccccc3c3ccccc32)cc1 ?
// result 0%

// query What do you have for COc1ccc2c3ccccc3n(S(=O)(=O)c3ccc(C)cc3)c2c1 ?
// result 0.8%

Values were extracted from ChEMBL document CHEMBL2424608.
